The reported numbers originate from patent US6685617B1.

system: α4β1 integrin (Jurkat T-cell adhesion to IL-1 stimulated endothelial cell monolayers) (Homo sapiens, UniProt P05556+P13612)
Construct: a T-cell line, Jurkat, known to express the α4β1 integrin
experimentalDetails: Jurkat-endothelial cell adhesion assay (Jurkat EC)
conditions: Jurkat cells on IL-1 stimulated human umbilical vein endothelial cells; read-out: JK/EC (Jurkat EC Assay IC50 value range)
pIC50: −log10 of the molar value.
Each entry below carries its recorded pIC50.

Guide cases for pIC50, answers given:
molecule	pIC50
O=C(O)c1cccc(C(=O)N2CCC[C@@H]2C(=O)N[C@@H](Cc2ccc(NC(=O)c3c(Cl)cccc3Cl)cc2)C(=O)O)n1 [Example 258]	≥ 6.60
O=C(Nc1ccc(C[C@H](NC(=O)[C@H]2CSCN2C(=O)N(CCO)CCO)C(=O)O)cc1)c1c(Cl)cccc1Cl [Example 58]	≥ 6.60
CCOC(=O)N1CSC[C@@H]1C(=O)N[C@@H](Cc1ccc(OCc2c(Cl)cccc2Cl)cc1)C(=O)O (relative stereo) [Example 35]	6.00 to 6.60
O=C(Nc1ccc(C[C@H](NC(=O)[C@@H]2CSCN2C(=O)c2cccnc2)C(=O)O)cc1)c1c(Cl)cccc1Cl [Example 239]	≤ 6.00
CCOC(=O)N1CSC[C@@H]1C(=O)N[C@@H](Cc1ccc(NC(=O)c2c(Cl)cccc2Cl)cc1)C(=O)OC (relative stereo) [Example 4]	≥ 6.60
COCCC(=O)N1CCCC(C(=O)N[C@@H](Cc2ccc(NC(=O)c3c(Cl)cccc3Cl)cc2)C(=O)O)C1 (some centres unmarked) [Example 173]	≥ 6.60

Query (molecule): COCCC(=O)N1CCC[C@@H]1C(=O)N[C@@H](Cc1ccc(NC(=O)c2c(Cl)cccc2Cl)cc1)C(=O)O [Example 256] ; field requested: pIC50
≥ 6.60

Query (molecule): O=C(Nc1ccc(C[C@H](NC(=O)[C@@H]2COCN2C(=O)OCc2ccccc2)C(=O)O)cc1)c1c(Cl)cccc1Cl [Example 125] ; field requested: pIC50
6.00 to 6.60

Query (molecule): CC1(C)SC[C@H](C(=O)N[C@@H](Cc2ccc(NC(=O)c3c(Cl)cccc3Cl)cc2)C(=O)O)N1C(=O)CCC(=O)O (relative stereo) [Example 85] ; field requested: pIC50
≥ 6.60

Query (molecule): O=C(O)c1cccc(C(=O)N2CSC[C@@H]2C(=O)N[C@@H](Cc2ccc(NC(=O)c3c(Cl)cccc3Cl)cc2)C(=O)O)n1 [Example 264] ; field requested: pIC50
≥ 6.60

Query (molecule): NC(=O)[C@H](Cc1ccc(OCc2c(Cl)cccc2Cl)cc1)NC(=O)[C@H]1CSCN1C(=O)OCCN1CCOCC1 (relative stereo) [Example 89] ; field requested: pIC50
≤ 6.00

====

system: α4β1 integrin (Jurkat cell adhesion to immobilized CS-1 derived peptide CLHPGEILDVPST) (Homo sapiens, UniProt P05556+P13612)
Construct: 100 μl of Jurkat cells (2.5×10^6 cells/ml) in DMEM plus BSA; host or cells: Jurkat T-cell line
Sequence (P13612 34-1032): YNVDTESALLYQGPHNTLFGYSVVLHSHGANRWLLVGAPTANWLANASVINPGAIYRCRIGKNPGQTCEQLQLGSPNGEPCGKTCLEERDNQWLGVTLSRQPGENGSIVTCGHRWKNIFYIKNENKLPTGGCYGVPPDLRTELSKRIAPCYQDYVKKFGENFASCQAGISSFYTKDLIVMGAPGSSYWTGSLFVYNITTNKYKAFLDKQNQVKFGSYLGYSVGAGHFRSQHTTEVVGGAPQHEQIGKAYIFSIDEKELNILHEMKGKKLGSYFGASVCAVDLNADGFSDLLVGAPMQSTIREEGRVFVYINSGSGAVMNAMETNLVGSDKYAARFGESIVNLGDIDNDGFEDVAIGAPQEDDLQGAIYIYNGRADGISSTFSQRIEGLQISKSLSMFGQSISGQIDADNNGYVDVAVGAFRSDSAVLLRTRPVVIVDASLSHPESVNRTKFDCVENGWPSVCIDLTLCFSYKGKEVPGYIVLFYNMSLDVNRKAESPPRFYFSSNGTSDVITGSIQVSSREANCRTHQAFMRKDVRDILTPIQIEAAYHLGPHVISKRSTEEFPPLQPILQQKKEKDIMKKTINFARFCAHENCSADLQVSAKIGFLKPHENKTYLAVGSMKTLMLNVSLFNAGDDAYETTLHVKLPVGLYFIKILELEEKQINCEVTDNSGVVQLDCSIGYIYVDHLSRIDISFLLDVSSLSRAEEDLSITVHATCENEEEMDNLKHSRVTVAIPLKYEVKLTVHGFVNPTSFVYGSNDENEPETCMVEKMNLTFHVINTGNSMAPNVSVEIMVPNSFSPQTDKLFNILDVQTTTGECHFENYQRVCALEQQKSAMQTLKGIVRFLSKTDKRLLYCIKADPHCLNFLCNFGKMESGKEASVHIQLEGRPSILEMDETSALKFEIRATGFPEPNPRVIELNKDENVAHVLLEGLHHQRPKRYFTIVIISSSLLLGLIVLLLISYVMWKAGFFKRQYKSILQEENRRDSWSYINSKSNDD
Sequence (P05556 21-798): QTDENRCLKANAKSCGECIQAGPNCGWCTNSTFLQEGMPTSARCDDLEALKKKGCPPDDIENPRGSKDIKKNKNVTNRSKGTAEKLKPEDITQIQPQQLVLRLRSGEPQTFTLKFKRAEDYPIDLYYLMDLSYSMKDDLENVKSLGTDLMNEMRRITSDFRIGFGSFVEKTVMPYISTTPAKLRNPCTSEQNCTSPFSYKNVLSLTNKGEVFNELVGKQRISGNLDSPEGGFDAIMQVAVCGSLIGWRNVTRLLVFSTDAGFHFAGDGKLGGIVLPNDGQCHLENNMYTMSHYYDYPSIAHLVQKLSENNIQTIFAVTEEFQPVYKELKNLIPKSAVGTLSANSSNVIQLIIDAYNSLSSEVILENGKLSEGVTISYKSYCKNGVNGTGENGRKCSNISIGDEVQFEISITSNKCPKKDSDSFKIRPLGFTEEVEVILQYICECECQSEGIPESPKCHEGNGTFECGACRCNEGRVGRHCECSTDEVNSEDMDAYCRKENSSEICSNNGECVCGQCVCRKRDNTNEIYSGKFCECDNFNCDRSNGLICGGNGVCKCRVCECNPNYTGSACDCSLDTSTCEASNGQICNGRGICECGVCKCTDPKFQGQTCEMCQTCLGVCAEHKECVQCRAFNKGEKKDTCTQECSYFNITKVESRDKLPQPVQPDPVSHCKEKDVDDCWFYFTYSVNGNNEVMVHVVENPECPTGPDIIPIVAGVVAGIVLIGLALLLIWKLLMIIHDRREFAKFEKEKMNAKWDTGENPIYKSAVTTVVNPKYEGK
experimentalDetails: Jurkat-CS-1 assay
Assay type: cell-based
conditions: Jurkat cells on CS-1 peptide coated plates; read-out: JK/CS-1 (Jurkat CS-1 Assay IC50 value range)
observationType: IC50

Guide cases for IC50, answers given:
molecule	observationType	measurement
CC(C)(C)OC(=O)N1CC[C@H]1C(=O)N[C@@H](Cc1ccc(NC(=O)c2c(Cl)cccc2Cl)cc1)C(=O)O [Example 143]	IC50	50 to 750 nM
O=C(O)CCCC(=O)N1CSC[C@@H]1C(=O)N[C@@H](Cc1ccc(NC(=O)c2c(Cl)cccc2Cl)cc1)C(=O)O (relative stereo) [Example 60]	IC50	≤ 50 nM
CCOC(=O)N1CSC[C@@H]1C(=O)N[C@@H](Cc1ccc(OCc2c(Cl)cccc2Cl)cc1)C(=O)O (relative stereo) [Example 35]	IC50	50 to 750 nM
O=C(O)CCC(=O)N1CSC[C@@H]1C(=O)N[C@@H](Cc1ccc(OCc2c(Cl)cccc2Cl)cc1)C(=O)O (relative stereo) [Example 64]	IC50	≤ 50 nM
O=C(O)CC1(CC(=O)N2CCCC(C(=O)N[C@@H](Cc3ccc(NC(=O)c4c(Cl)cccc4Cl)cc3)C(=O)O)C2)CCCC1 (stereo partly shown) [Example 195]	IC50	50 to 750 nM

Now turn to the next molecule.
Query (molecule): O=C(O)CCCC(=O)N1CSC[C@H]1C(=O)N[C@@H](Cc1ccc(NC(=O)c2c(Cl)cccc2Cl)cc1)C(=O)O (relative stereo) [Example 68] ; field requested: IC50
50 to 750 nM
